- Test system: 8505C cells
- Experimental Details: CellTiter-Glo dose-response in 8505C cells after siRNA knockdown
- Assay type: cell-based, human
- Test Parameters: Homo sapiens, 72 h, scrambled (Scr) siRNA
Endpoint Name: pIC50
Answers are plain numbers, as −log10 of the molar value.

Form field: pIC50 recorded for CNC(=O)c1cc(Oc2ccc(NC(=O)Nc3ccc(Cl)c(C(F)(F)F)c3)cc2)ccn1 with 8505C cells (enter value)
4.98

###

For each of the compounds below, state its IC50.
- Tested on: THJ-21T
- Experimental Details: 72-hr survival dose-response of ATC cell line THJ-21T
- Format: cell-based
- Test Parameters: Homo sapiens
Give bare numbers, in µM.

- Compound: "CCN(CC)CCCC(C)Nc1c2ccc(Cl)cc2nc2ccc(OC)cc12 (centres unmarked)"
  Value Units: "µM"
  IC50: 15.4

Switching to the query record.
Would you mind telling me what IC50 value was observed for CNC(=O)c1cc(Oc2ccc(NC(=O)Nc3ccc(Cl)c(C(F)(F)F)c3)cc2)ccn1 ?
12.4
